System: T1, PSMA Fab
T1 construct: also called Anti-PSMA Fab; 006 PSMA Fab
Assay Explanation: clonal phage ELISA; biotinylated PSMA Fab on neutravidin plate; anti-M13 HRP detection
Measurement Label: Phage binding ELISA signal, Anti-PSMA Fab
Quick one: just the number, no unit, thanks!

Form: binder = EYQVCKPTWMCTGF [Phage-3266] ; Phage binding ELISA signal, Anti-PSMA Fab = 1.91

Form: binder = ENVRCEPMWMCKGF [Phage-3260] ; Phage binding ELISA signal, Anti-PSMA Fab = 1.92

Form: binder = QPGYCVPQWMCMGF [Phage-3258] ; Phage binding ELISA signal, Anti-PSMA Fab = 1.92

Form: binder = VSIVCVPEWMCSGF [Phage-3262] ; Phage binding ELISA signal, Anti-PSMA Fab = 1.92

Form: binder = EENFCVPKWMCEGF [Phage-3264] ; Phage binding ELISA signal, Anti-PSMA Fab = 1.91

Form: binder = YGALCVPAWMCSGF [Phage-3254] ; Phage binding ELISA signal, Anti-PSMA Fab = 1.93

Form: binder = AEMRCIPQWMCSGL [Phage-3259] ; Phage binding ELISA signal, Anti-PSMA Fab = 1.92
